target: T1, human Her2 (ECD)-Fc protein (human, UniProt P04626 23-652); test: PE-ELISA, crude extract on antigen-coated plate
T1 construct: extracellular domain; Made in HEK293F cells; also called hHer2 (ECD)-Fc antigen; Her2 (ECD)-Fc antigen; not shown: TEV restriction site at the C-terminal of hHer2 (ECD); IgG1 Fc of the pFUSE-IgG1 vector
As shown below, each of these binders has a reported A405+ value.
Kindly provide the numeric value in A405 only, without the unit symbol.

Recorded result, Nanobody No. 5 (VHH, not shown: tags (HA, His) implied by anti-HA detection and nickel column) VHH: QVQLQESGGGSVQAGGSLRLSCTVSGFSFDDSDMGWYRRAPGNECELVSGISRDGSTYYADSVKGRFTISQDNAKNWVYLQMNSLKPEDTAVYYCAAATYSDYVCDYWTQGTQVTVSS , A405+: 1.1

A405+ reported for this binder Nanobody No. 8 (VHH, not shown: tags (HA, His) implied by anti-HA detection and nickel column) VHH: QVQLQESGGGSVQAGETLRLSCTASGFTFDESVMGWYRQAPGNECELVSTISSDGSTYYSNSVKGRFTISQDNAKNTVYLQMNSLKPEDTAVYYCAADDHTYELGTCEALNYWGRGTQVTVSS : 2.56

Recorded A405+ (binder Nanobody No. 27 (VHH, also called 27; not shown: tags (HA, His) implied by anti-HA detection and nickel column) VHH: QVQLQESGGGSVQAGETLRLSCTASGFTFDDSDMGWYRQAPGNECELVSTISSDGSTYYADSVKGRFTISQDNAKNTVYLQMNSLKPEDTAVYYCAADHGGGYELGTCAALDYWGRGTQVTVSS ): 1.66

A405+ measured on Nanobody No. 35 (VHH, also called 35; not shown: tags (HA, His) implied by anti-HA detection and nickel column) VHH: QVQLQESGGGLVQPGGSLRLSCAASGFTFDDVDMGWYRQAPGNECELVSTISSDGSTYYADSVKGRFTISQDNAKNTVYLQMNSLKPEDTAMYYCAAARYSDYEGMCGYWSQGTQVTVSS = 1.99

Reference source: patent US20230263916A1
